Assignment: determine reported log2 ratio of Biotin-Ahx-Ub-VS probe labelling for the given compounds.
system under test: USP48 (UniProt Q86UV5)
Sequence (Q86UV5 whole entry, the tested form may be a part): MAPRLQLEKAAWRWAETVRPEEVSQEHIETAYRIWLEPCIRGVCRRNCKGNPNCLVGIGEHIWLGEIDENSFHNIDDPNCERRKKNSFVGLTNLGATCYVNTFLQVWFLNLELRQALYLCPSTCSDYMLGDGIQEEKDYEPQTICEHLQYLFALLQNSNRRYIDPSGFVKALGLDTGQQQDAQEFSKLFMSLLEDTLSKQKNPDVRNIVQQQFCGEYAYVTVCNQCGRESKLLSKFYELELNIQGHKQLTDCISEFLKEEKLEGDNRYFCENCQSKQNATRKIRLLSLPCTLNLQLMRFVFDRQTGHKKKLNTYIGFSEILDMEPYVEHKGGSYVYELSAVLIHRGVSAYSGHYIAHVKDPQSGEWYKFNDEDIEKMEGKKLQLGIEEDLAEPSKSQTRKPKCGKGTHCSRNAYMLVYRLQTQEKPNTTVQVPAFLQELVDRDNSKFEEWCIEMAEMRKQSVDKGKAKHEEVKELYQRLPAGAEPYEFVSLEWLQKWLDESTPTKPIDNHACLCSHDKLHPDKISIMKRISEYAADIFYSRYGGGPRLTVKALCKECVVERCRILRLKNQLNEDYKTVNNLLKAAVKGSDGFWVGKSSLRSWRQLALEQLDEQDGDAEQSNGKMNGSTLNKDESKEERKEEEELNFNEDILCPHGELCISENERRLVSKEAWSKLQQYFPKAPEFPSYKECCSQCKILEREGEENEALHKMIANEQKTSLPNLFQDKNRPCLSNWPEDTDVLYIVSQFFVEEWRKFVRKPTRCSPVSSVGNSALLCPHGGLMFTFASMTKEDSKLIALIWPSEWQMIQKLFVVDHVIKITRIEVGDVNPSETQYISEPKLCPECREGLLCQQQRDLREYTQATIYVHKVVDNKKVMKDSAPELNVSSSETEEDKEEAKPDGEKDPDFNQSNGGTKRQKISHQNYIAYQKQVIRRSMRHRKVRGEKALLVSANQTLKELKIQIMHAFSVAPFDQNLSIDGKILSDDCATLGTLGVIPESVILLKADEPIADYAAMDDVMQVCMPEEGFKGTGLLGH
test description: log2 ratio of Biotin-Ahx-Ub-VS probe labelling (fragment/DMSO); higher = less target engagement (more negative = stronger competition), active = hit call of the paper (q ≤ 0.05, log2 ratio ≤ -1)
assay context: compound concentration: 200 uM; treatment time: 3 h

Look up log2 ratio of Biotin-Ahx-Ub-VS probe labelling: Cc1ccc(C)c(Oc2ccc(CNC(=O)CCl)cn2)c1.Cl -0.619 (inactive)

// log2 ratio of Biotin-Ahx-Ub-VS probe labelling lookup, key: CC(=O)C1CCCCN1C(=O)CCl (stereo unspecified) -0.362 (inactive)

GET /values?readout=log2 ratio of Biotin-Ahx-Ub-VS probe labelling&item= Cc1cccc(N2CCC(NC(=O)CCl)C2=O)c1 (stereo unspecified) -0.138 (inactive)

Look up log2 ratio of Biotin-Ahx-Ub-VS probe labelling: CN1C(=O)c2ccc(NC(=O)CCl)cc2C1=O -0.208 (inactive)

Consider the compound shown here: CN(C)S(=O)(=O)c1ccccc1CNC(=O)CCl What is its recorded log2 ratio of Biotin-Ahx-Ub-VS probe labelling? -0.169 (inactive)

Value lookup for log2 ratio of Biotin-Ahx-Ub-VS probe labelling; key = Cc1ccc(CC(CO)CNC(=O)CCl)cc1 (stereo unspecified) -0.405 (inactive)

Can you look up the measured log2 ratio of Biotin-Ahx-Ub-VS probe labelling of CC1(NC(=O)CCl)CCS(=O)(=O)C1 (stereo unspecified) for me? -0.544 (inactive)

Field request: log2 ratio of Biotin-Ahx-Ub-VS probe labelling | item: Cc1cc(Cl)ccc1NC(=O)CCl -0.173 (inactive)

Endpoint output: log2 ratio of Biotin-Ahx-Ub-VS probe labelling of O=C(CCl)N[C@H]1CC[C@@H](CO)CC1 . Value? -0.534 (inactive)

Request the reported log2 ratio of Biotin-Ahx-Ub-VS probe labelling associated with O=C(CCl)Nc1cccc(NC(=O)c2ccccc2)c1 -0.0133 (inactive)

Entry COc1ccccc1C(C)NC(=O)CCl (stereo unspecified) has what log2 ratio of Biotin-Ahx-Ub-VS probe labelling? -0.321 (inactive)

Any idea what log2 ratio of Biotin-Ahx-Ub-VS probe labelling was measured for Cc1ncc2c(n1)CCN(C(=O)CCl)C2 ? -0.0668 (inactive)

Field request: log2 ratio of Biotin-Ahx-Ub-VS probe labelling | item: Cc1noc(N2CCN(C(=O)CCl)CC2)n1.Cl 0.0849 (inactive)

Name the recorded log2 ratio of Biotin-Ahx-Ub-VS probe labelling for O=C(CCl)N1CCC2(CCC(O)CC2)CC1 . -0.0801 (inactive)

Bench note: what log2 ratio of Biotin-Ahx-Ub-VS probe labelling did CCN1C(=O)C2CN(C(=O)CCl)CCN2C1=O (stereo unspecified) show? -0.1 (inactive)

Fill in the blank: the reported log2 ratio of Biotin-Ahx-Ub-VS probe labelling of C[C@@H](NC(=O)CCl)c1cccc(C#N)c1 is ____. -0.209 (inactive)

Recorded log2 ratio of Biotin-Ahx-Ub-VS probe labelling for Cl.O=C(CCl)NCCc1ncc(F)cc1F , please? -0.466 (inactive)

Which log2 ratio of Biotin-Ahx-Ub-VS probe labelling reading was recorded for the compound O=C(CCl)N1CCC(C(O)c2ccc(F)cc2)CC1 (stereo unspecified) ? 0.00604 (inactive)

Query (compound): Cc1nnc(C(NC(=O)CCl)c2ccccc2)n1C (stereo unspecified) ; field requested: log2 ratio of Biotin-Ahx-Ub-VS probe labelling 0.313 (inactive)

What does the record list as log2 ratio of Biotin-Ahx-Ub-VS probe labelling for O=C(CCl)Nc1cc(Cl)ccc1C(=O)O ? 0.232 (inactive)

Quick check: log2 ratio of Biotin-Ahx-Ub-VS probe labelling of O=C(CCl)NCC1(c2ccccc2)CC1 ? -0.502 (inactive)

Give its log2 ratio of Biotin-Ahx-Ub-VS probe labelling value. Item: O=C(CCl)N1CCC(C(=O)N2CCCC2)CC1 0.126 (inactive)

Form field: reported log2 ratio of Biotin-Ahx-Ub-VS probe labelling of Cc1ccc(CC(NC(=O)CCl)c2ccccn2)cc1.Cl (stereo unspecified) 0.0528 (inactive)

Recorded log2 ratio of Biotin-Ahx-Ub-VS probe labelling of O=C(CCl)NC1CCN(C(=O)C2CCCCC2)CC1 , please. 0.136 (inactive)

Need log2 ratio of Biotin-Ahx-Ub-VS probe labelling of Cc1c(C#N)c(NC(=O)CCl)n(Cc2ccco2)c1C , thanks. -0.398 (inactive)

// lookup log2 ratio of Biotin-Ahx-Ub-VS probe labelling for O=C(CCl)N(Cc1ccsc1)C1CC1 -1.14 (active)

# query: log2 ratio of Biotin-Ahx-Ub-VS probe labelling of entry Cl.Cn1nccc1C(NC(=O)CCl)c1ccccc1 (stereo unspecified) -0.11 (inactive)

Would you mind telling me what log2 ratio of Biotin-Ahx-Ub-VS probe labelling value was observed for Cl.Cn1ncc2c1CCCC2NC(=O)CCl (stereo unspecified) ? -0.07 (inactive)

Requested read-out: log2 ratio of Biotin-Ahx-Ub-VS probe labelling. Entry: O=C(CCl)N1CCOC2(CCC2)C1 -0.474 (inactive)

Which log2 ratio of Biotin-Ahx-Ub-VS probe labelling is listed for O=C(CCl)Nc1cc(Cl)ccc1-n1cncn1 ? -0.638 (inactive)

I have this compound here, O=C(CCl)N1CCOC(CCc2ccccc2)C1 (stereo unspecified) , and I need its recorded log2 ratio of Biotin-Ahx-Ub-VS probe labelling. -0.472 (inactive)

So what does the record say about log2 ratio of Biotin-Ahx-Ub-VS probe labelling for Cl.O=C(CCl)N1CCn2cncc2C1 ? -0.0876 (inactive)

Name the reported log2 ratio of Biotin-Ahx-Ub-VS probe labelling value associated with the compound O=C(CCl)N1CCN(c2nc3ccccc3o2)CC1 -0.829 (inactive)

Look up log2 ratio of Biotin-Ahx-Ub-VS probe labelling: Cn1cc(CN(Cc2ccc(Cl)cc2)C(=O)CCl)cn1 -0.598 (inactive)

Find the recorded log2 ratio of Biotin-Ahx-Ub-VS probe labelling belonging to O=C(CCl)N1CCOCCC1c1ccccc1 (stereo unspecified) and report it. 0.0099 (inactive)

Fill blank: measured log2 ratio of Biotin-Ahx-Ub-VS probe labelling of the compound O=C(CCl)N1CCc2[nH]c3ccccc3c2C1 is ____. -0.532 (inactive)

Which log2 ratio of Biotin-Ahx-Ub-VS probe labelling value is on record for NS(=O)(=O)c1ccc(Cl)c(NC(=O)CCl)c1 ? -0.536 (inactive)

# log2 ratio of Biotin-Ahx-Ub-VS probe labelling lookup, item Cc1ccccc1OCC(=O)N1CCN(C(=O)CCl)CC1 -0.356 (inactive)

Give the measured log2 ratio of Biotin-Ahx-Ub-VS probe labelling of Cc1ccccc1C1(CNC(=O)CCl)CCOCC1 . -0.295 (inactive)

Can you share its log2 ratio of Biotin-Ahx-Ub-VS probe labelling? I mean this compound: O=C(CCl)N1CCCCCC1c1ncon1 (stereo unspecified) -0.467 (inactive)

Which log2 ratio of Biotin-Ahx-Ub-VS probe labelling is reported for this compound? CCN(C(=O)CCl)C1CCS(=O)(=O)C1 (stereo unspecified) -0.155 (inactive)

Quick check: log2 ratio of Biotin-Ahx-Ub-VS probe labelling of O=C(CCl)NCCc1ccc(F)cc1 ? -0.229 (inactive)

Look up log2 ratio of Biotin-Ahx-Ub-VS probe labelling for this compound: Cc1ccc(C(=O)NCCNC(=O)CCl)cc1 -0.318 (inactive)

Name the recorded log2 ratio of Biotin-Ahx-Ub-VS probe labelling for O=C(CCl)NCc1ccc(N2CCOCC2)c(F)c1 . 0.132 (inactive)

Quick check: log2 ratio of Biotin-Ahx-Ub-VS probe labelling of Cl.O=C(CCl)N1CCC(n2nc3ccccc3n2)CC1 ? -0.485 (inactive)

What does the record list as log2 ratio of Biotin-Ahx-Ub-VS probe labelling for CC(c1ccccc1)N(C)C(=O)CCl (stereo unspecified) ? -0.407 (inactive)

Fill in the blank: the reported log2 ratio of Biotin-Ahx-Ub-VS probe labelling of O=C(CCl)N1CCOC(c2cccc(F)c2)C1 (stereo unspecified) is ____. -1.36 (active)

For CN1c2ccccc2C(NC(=O)CCl)CS1(=O)=O (stereo unspecified) , what is its reported log2 ratio of Biotin-Ahx-Ub-VS probe labelling? -0.464 (inactive)

# query: log2 ratio of Biotin-Ahx-Ub-VS probe labelling of entry O=C(CCl)NCCC1=CCCCC1 0.0648 (inactive)

Please give the measured log2 ratio of Biotin-Ahx-Ub-VS probe labelling for this compound: O=C(CCl)Nc1cc2c(cc1Cl)OCCCO2 -0.438 (inactive)

Looking for the measured log2 ratio of Biotin-Ahx-Ub-VS probe labelling of Cl.Cn1ncc2c1CC(NC(=O)CCl)CC2 (stereo unspecified) , can you help? 0.191 (inactive)

Fill in the blank: the reported log2 ratio of Biotin-Ahx-Ub-VS probe labelling of CC(NC(=O)CCl)c1cc2n(n1)CCCC2.Cl (stereo unspecified) is ____. -0.017 (inactive)

I am curious: what log2 ratio of Biotin-Ahx-Ub-VS probe labelling value has been reported for CS(=O)(=O)N1CCCN(C(=O)CCl)CC1 ? -0.507 (inactive)

Quick one: log2 ratio of Biotin-Ahx-Ub-VS probe labelling of Cc1cccc(C(CNC(=O)CCl)N2CCOCC2)c1.Cl (stereo unspecified) ? -0.106 (inactive)

Could you tell me which log2 ratio of Biotin-Ahx-Ub-VS probe labelling is on file for CN(Cc1nc2ccccc2[nH]1)C(=O)CCl.Cl ? -1.14 (active)

So what does the record say about log2 ratio of Biotin-Ahx-Ub-VS probe labelling for COc1ccc(-c2csc(NC(=O)CCl)n2)cc1 ? -0.611 (inactive)

Reference for the values: the supplement of paper PMC11732987
